# test context: human
Hepatotoxicity (choleostasis) values by entry
Please reply with the number alone, leaving off any unit.

compound | Hepatotoxicity (choleostasis)
CC1(C)CC(=O)N(CCCCN2CCN(c3ncccn3)CC2)C(=O)C1 [GEPIRONE] | 0
[H]/N=C(\N/C(=N/[H])Nc1ccc(Cl)cc1)NC(C)C | 0
C[C@H]1C[C@H]2[C@@H]3CCC4=CC(=O)C=C[C@]4(C)[C@@]3(F)[C@@H](O)C[C@]2(C)[C@@]1(O)C(=O)CO | 0
CO/N=C(\C(=O)N[C@@H]1C(=O)N2C(C(=O)O)=C(CSc3nc(C)c(CC(=O)O)s3)CS[C@H]12)c1csc(N)n1 | 0
O=c1cc[nH]c(=S)[nH]1 | 1
c1ccc2[nH]c(-c3cscn3)nc2c1 | 13
CC(C(=O)O)c1cccc(Oc2ccccc2)c1 (centres undefined) | 1
Cc1c(O)c(=O)ccn1C | 0

Q: Quick one: Hepatotoxicity (choleostasis) for CO[C@@H](/C(C)=C/C=C/C(C)=C/c1coc(C)n1)[C@@H](C)[C@@H]1C[C@H](O)[C@@]2(C)O[C@@H]2/C=C/[C@@H](C)[C@H]2C[C@H](CC(=O)O2)C[C@@H]2O[C@H]2C(=O)O1 ?
Result: 0

----------
# method summary: Highest frequency of moderate liver toxicity observed during clinical trials, expressed as a percentage. [column '% BIOL' in source]
# test context: human
Classify as follows. Reported Hepatotoxicity (moderate) greater than or equal to 10%: MET. Reported Hepatotoxicity (moderate) below: NOT MET.

Worked examples, 5 compounds total:
compound | answer label
CC(S)C(=O)NCC(=O)O (centres undefined) | NOT MET
Clc1ccccc1C(c1ccccc1)(c1ccccc1)n1ccnc1 | MET
COc1cc(NS(=O)(=O)c2ccc(N)cc2)nc(OC)n1 | NOT MET
C[C@@H](c1ncncc1F)[C@](O)(Cn1cncn1)c1ccc(F)cc1F | NOT MET
CC(C)NCC(O)COc1cccc2[nH]ccc12 (centres undefined) | NOT MET

Please look at the following compound next.
Q: Hi team, for CN(Cc1cnc2nc(N)nc(N)c2n1)c1c(Cl)cc(C(=O)N[C@@H](CCC(=O)O)C(=O)O)cc1Cl , is the recorded Hepatotoxicity (moderate) at or above 10%?
Result: MET

----------
# method summary: Proposed mechanism(s) of liver damage. [column 'MEC' in source]
# test context: human
Where a SMILES comes first, the peptide text is derived from it. Bridges are numbered along the chain shown (N, C = ends). [ ]: non-standard residue; d: D form. The star is where a group is joined. Threoninol(2S,3R) = C[C@@H](O)[C@H](CO)N*
observation type: Hepatotoxicity (mechanism)

Solved cases below.
molecule | Hepatotoxicity (mechanism)
Cc1noc(NS(=O)(=O)c2ccc(N)cc2)c1C | Allergic
CC(Cc1ccccc1)NCCC(c1ccccc1)c1ccccc1 (centres undefined) | Dose-dependant
O=c1[nH]c(=O)n([C@H]2C[C@H](O)[C@@H](CO)O2)cc1F | Dose-dependant
CCOC(=O)n1ccn(C)c1=S | Allergic
CC1(C)S[C@@H]2[C@H](NC(=O)[C@H](N)c3ccc(O)cc3)C(=O)N2[C@H]1C(=O)O | Allergic

Q: Quick one: Hepatotoxicity (mechanism) for CN(CCOc1ccc(CC2SC(=O)NC2=O)cc1)c1ccccn1 (centres undefined) ?
Result: Allergic

Q: Quick one: Hepatotoxicity (mechanism) for CC(=O)N[C@H]1[C@@H](O[C@H]2[C@H](O)[C@@H](O)[C@H](O[C@H]3[C@H](CS(=O)(=O)O)[C@@H](OS(=O)(=O)O)[C@@H](O[C@H]4[C@H](O)[C@@H](OS(=O)(=O)O)C(O)O[C@H]4C(=O)O)O[C@@H]3O)O[C@@H]2C(=O)O)O[C@H](COS(=O)(=O)O)[C@@H](O)[C@@H]1O (some centres undefined) [SODIUM HEPARIN] ?
Result: Dose-dependant

Q: Quick one: Hepatotoxicity (mechanism) for Cc1c(N(C)CS(=O)(=O)[O-])c(=O)n(-c2ccccc2)n1C.[Na+] [DIPYRONE SODIUM] ?
Result: Allergic

Q: Quick one: Hepatotoxicity (mechanism) for CCc1nc(N)nc(N)c1-c1ccc(Cl)cc1.COc1ncnc(NS(=O)(=O)c2ccc(N)cc2)c1OC ?
Result: Allergic

Q: Quick one: Hepatotoxicity (mechanism) for C[C@@H](CN1CC(=O)NC(=O)C1)N1CC(=O)NC(=O)C1 ?
Result: Dose-dependant

Q: Quick one: Hepatotoxicity (mechanism) for C[C@@](O)(/C=C/[C@H]1CC=CC(=O)O1)[C@@H](C[C@@H](O)\C=C/C=C\C=C\CO)OP(=O)(O)O ?
Result: Dose-dependant

Q: Quick one: Hepatotoxicity (mechanism) for O=C(Nc1ccc(Cl)cc1)NS(=O)(=O)c1ccc2c(c1)CCC2 ?
Result: Dose-dependant

Q: Quick one: Hepatotoxicity (mechanism) for O=C(O)CCCc1ccc(N(CCCl)CCCl)cc1 ?
Result: Allergic

Q: Quick one: Hepatotoxicity (mechanism) for c1ccc(C2(N3CCCCC3)CCCCC2)cc1 ?
Result: Dose-dependant

Q: Quick one: Hepatotoxicity (mechanism) for CN1[C@@H]2CC[C@H]1C[C@@H](OC(=O)c1c[nH]c3ccccc13)C2 ?
Result: Dose-dependant

Q: Quick one: Hepatotoxicity (mechanism) for CC1=C(CC(=O)O)c2cc(F)ccc2/C1=C\c1ccc([S+](C)[O-])cc1 (centres undefined) ?
Result: Allergic

Q: Quick one: Hepatotoxicity (mechanism) for CC1(C)S[C@@H]2[C@H](NC(=O)[C@H](N)c3ccc(O)cc3)C(=O)N2[C@H]1C(=O)O.O=C(O)[C@H]1/C(=C/CO)O[C@@H]2CC(=O)N21 ?
Result: Allergic

Q: Quick one: Hepatotoxicity (mechanism) for CNC=O ?
Result: Dose-dependant

Q: Quick one: Hepatotoxicity (mechanism) for CC1(C)S[C@@H]2[C@H](NC(=O)[C@H](N)c3ccccc3)C(=O)N2[C@H]1C(=O)O ?
Result: Allergic

Q: Quick one: Hepatotoxicity (mechanism) for CCOC(=O)[C@H](CCc1ccccc1)N[C@@H](C)C(=O)N1CCC[C@H]1C(=O)O ?
Result: Allergic

Q: Quick one: Hepatotoxicity (mechanism) for CC(C)(O/N=C(\C(=O)N[C@@H]1C(=O)N2C(C(=O)[O-])=C(C[n+]3ccccc3)CS[C@H]12)c1csc(N)n1)C(=O)O ?
Result: Dose-dependant

Q: Quick one: Hepatotoxicity (mechanism) for C[C@@H](O)[C@H](CO)NC(=O)[C@@H]1CSSC[C@H](NC(=O)[C@H](N)Cc2ccccc2)C(=O)N[C@@H](Cc2ccccc2)C(=O)N[C@H](Cc2c[nH]c3ccccc23)C(=O)N[C@@H](CCCCN)C(=O)N[C@@H]([C@@H](C)O)C(=O)N1 (H-[dF]CF[dW]KTC-{Threoninol(2S,3R)}; disulfide 2-7) ?
Result: Dose-dependant

Where do the numbers come from? From ChEMBL document CHEMBL3137667.
